# measured on: Calmodulin-1 (Homo sapiens) (UniProt P0DP23)
# procedure details: CALM1 binders on microarrays, EGTA buffer, profiling panel, biochemical, small-molecule microarray, Cy5-labelled CALM1 (AID 1111);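 note: labelled calmodulin applied in Tris saline Tween buffer holding calcium plus EGTA and DTT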
# condition info: Cy5-CALM1 binding fluorescence, higher = more signal
I would appreciate it if you labelled entries T when composite z-score is -0.02 or higher, otherwise F.

*Q* Textbook exercise: given the entry `CCCCC(=C=CC[C@H](O)c1cccc(OCCO)c1)C[C@H](O)c1cc(Cl)cc(Cl)c1O` , state whether its composite z-score is greater than or equal to -0.02.
*A* T

*Q* Textbook exercise: given the entry `COC(=O)C[C@H]1O[C@]2(C(=O)N(C)c3ccccc32)[C@@H](C)[C@@H]1[Si](C)(C)c1ccccc1` , state whether its composite z-score is greater than or equal to -0.02.
*A* F

*Q* Textbook exercise: given the entry `C=C(CC1([C@@H](NP(=O)(c2ccccc2)c2ccccc2)[C@H]2C[C@@H]2CCCC)CC1)c1cccc(OC)c1` , state whether its composite z-score is greater than or equal to -0.02.
*A* T

*Q* Textbook exercise: given the entry `COC(=O)[C@@]1(Cc2ccc(F)cc2)[C@H]2c3cc(C(=O)N(C)C)n(CCF)c3C[C@H]2CN1C(=O)c1ccccc1` , state whether its composite z-score is greater than or equal to -0.02.
*A* T

*Q* Textbook exercise: given the entry `CC(C)(C)OC(=O)CC[C@@]1(C(N)=O)N=C(c2ccc(OCCCO)cc2)O[C@@H]1c1ccccc1CN=[N+]=[N-]` , state whether its composite z-score is greater than or equal to -0.02.
*A* T

*Q* Textbook exercise: given the entry `C=C(CCCC)/C(=C/C[C@@H](OC(C)=O)c1cccc(OCCO)c1)c1cc(C(=O)OC)ccc1OC` , state whether its composite z-score is greater than or equal to -0.02.
*A* F

*Q* Textbook exercise: given the entry `O=C(CS)NCCCCCCNC(=O)[C@H]1C[C@H]2C(=O)NCC(=O)N2[C@H]1c1cccc(OCCO)c1` , state whether its composite z-score is greater than or equal to -0.02.
*A* T

*Q* Textbook exercise: given the entry `CCCCCCc1nc(Cc2cc(OC)c(OC)c(OC)c2)c(C)c2c1[Si](C(C)C)(C(C)C)OC2` , state whether its composite z-score is greater than or equal to -0.02.
*A* F

This collection of values is drawn from PubChem BioAssay.
